Target: PRMT5 (Homo sapiens, UniProt O14744)
Construct: His-tag; made in house; host or cells: Sf9 insect cells (Bac-to-Bac baculovirus)
Sequence (O14744 whole entry): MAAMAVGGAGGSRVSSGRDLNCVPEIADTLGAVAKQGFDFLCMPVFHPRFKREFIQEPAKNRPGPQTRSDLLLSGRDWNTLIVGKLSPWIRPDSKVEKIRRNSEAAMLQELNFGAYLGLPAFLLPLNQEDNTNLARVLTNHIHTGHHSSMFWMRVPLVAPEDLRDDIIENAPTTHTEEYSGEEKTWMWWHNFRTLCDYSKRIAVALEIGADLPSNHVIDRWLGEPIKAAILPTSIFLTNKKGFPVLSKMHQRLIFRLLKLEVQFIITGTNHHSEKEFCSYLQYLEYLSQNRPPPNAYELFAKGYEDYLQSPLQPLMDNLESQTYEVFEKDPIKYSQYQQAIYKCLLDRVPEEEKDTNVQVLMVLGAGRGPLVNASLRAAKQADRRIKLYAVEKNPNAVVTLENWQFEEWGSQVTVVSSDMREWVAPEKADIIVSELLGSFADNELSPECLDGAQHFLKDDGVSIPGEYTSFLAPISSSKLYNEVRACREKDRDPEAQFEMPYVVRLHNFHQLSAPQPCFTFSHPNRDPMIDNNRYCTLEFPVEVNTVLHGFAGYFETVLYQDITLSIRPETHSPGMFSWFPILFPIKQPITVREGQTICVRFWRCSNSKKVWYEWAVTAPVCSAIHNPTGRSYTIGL
Sequence (Q9BQA1 whole entry partner): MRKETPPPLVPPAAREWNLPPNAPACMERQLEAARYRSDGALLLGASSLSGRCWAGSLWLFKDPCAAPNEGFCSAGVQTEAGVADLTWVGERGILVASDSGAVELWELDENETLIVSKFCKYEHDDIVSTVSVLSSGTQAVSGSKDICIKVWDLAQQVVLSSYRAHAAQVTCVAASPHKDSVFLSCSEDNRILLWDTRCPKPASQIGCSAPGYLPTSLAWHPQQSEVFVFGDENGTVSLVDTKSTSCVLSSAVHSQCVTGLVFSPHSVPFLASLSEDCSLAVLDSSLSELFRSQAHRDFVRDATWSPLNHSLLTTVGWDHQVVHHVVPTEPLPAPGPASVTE
Experiment: scintillation proximity assay (SPA) of PRMT5 methyltransferase activity
Type: biochemical
Conditions: SPA, concentration-dependent; 0.5 μM H4(1–20)K20biotin, 0.5 μM 3H-SAM; read-out: IC50 PRMT5 (converted)
// boundary case: IC50 equal to 4 µM maps to N; strictly smaller maps to Y

{"mol smiles": "COC(=O)c1ccc(CNCc2cn(C[C@H]3O[C@@H](n4cnc5c(N)ncnc54)[C@H](O)[C@@H]3O)nn2)cc1", "classification": "Y"}
{"mol smiles": "Nc1ncnc2c1ncn2[C@@H]1O[C@H](Cn2cc(CO)nn2)[C@@H](O)[C@H]1O", "classification": "N"}
{"mol smiles": "[N-]=[N+]=NC[C@H]1O[C@@H](n2cnc3c(N)ncnc32)[C@H](O)[C@@H]1O", "classification": "Y"}
{"mol smiles": "Nc1ncnc2c1ncn2[C@@H]1O[C@H](Cn2cc(CCCC(=O)O)nn2)[C@@H](O)[C@H]1O", "classification": "N"}
{"mol smiles": "Nc1ncnc2c1ncn2[C@@H]1O[C@H](Cn2cc(-c3ccccc3)nn2)[C@@H](O)[C@H]1O", "classification": "Y"}
{"mol smiles": "Nc1ncnc2c1ncn2[C@@H]1O[C@H](Cn2cc(CNCC(=O)Nc3ccccc3F)nn2)[C@@H](O)[C@H]1O", "classification": "N"}
{"mol smiles": "C[Si](C)(C)c1cn(C[C@H]2O[C@@H](n3cnc4c(N)ncnc43)[C@H](O)[C@@H]2O)nn1", "classification": "N"}
{"mol smiles": "CC(C)(C)c1cn(C[C@H]2O[C@@H](n3cnc4c(N)ncnc43)[C@H](O)[C@@H]2O)nn1", "classification": "N"}
{"mol smiles": "CC(C)[C@H](N)C(=O)OCc1cn(C[C@H]2O[C@@H](n3cnc4c(N)ncnc43)[C@H](O)[C@@H]2O)nn1", "classification": "Y"}
{"mol smiles": "Nc1ncnc2c1ncn2[C@@H]1O[C@H](Cn2cc(CCCCC(=O)O)nn2)[C@@H](O)[C@H]1O", "classification": "N"}
